Value source: the supplement of paper PMC6897291

- Test system: U-2932
- Protocol Description: growth inhibition by drug plus 177Lu-lilotomab satetraxetan (1 - RLU/untreated control) (fraction); higher = stronger inhibition
- Cond: 10 nM; time (day): 6; 177Lu-lilotomab satetraxetan 1 ug/ml
Structures can show the parent of a compound that is named as a salt.
Measured Metric: growth inhibition by drug plus 177Lu-lilotomab satetraxetan
Give bare numbers.

Compound	Value Observed
COc1c(C)c2c(c(O)c1C/C=C(\C)CCC(=O)OCCN1CCOCC1)C(=O)OC2 [Mycophenolate mofetil (CellCept)]	0.115
COc1ccc2c3n(c(=NC(=O)c4cccnc4)nc2c1OC)CCN3	0.178
Nc1cccc2c1CN(C1CCC(=O)NC1=O)C2=O (stereo not given) [Lenalidomide]	0.257

Hi, could you look up growth inhibition by drug plus 177Lu-lilotomab satetraxetan for each item in my list?
1. Cc1oc(S(=O)(=O)N2CCCCC2)cc1NC(=O)Nc1ccccc1
2. COc1ccc(CNC(=O)Nc2ncc([N+](=O)[O-])s2)cc1
3. Cc1ccc(-n2nc(C(C)(C)C)cc2NC(=O)Nc2ccc(OCCN3CCOCC3)c3ccccc23)cc1
4. CC(C)OC(=O)C1=CN(C(=O)c2ccc(F)c(F)c2)CC(C)(C)c2c1[nH]c1ccccc21
5. Cc1cnc(-c2cnc(NCCNc3ccc(C#N)cn3)nc2-c2ccc(Cl)cc2Cl)[nH]1
6. CC(=O)[C@]1(O)Cc2c(O)c3c(c(O)c2[C@@H](O[C@H]2C[C@H](N)[C@H](O)[C@H](C)O2)C1)C(=O)c1ccccc1C3=O [Idarubicin HCl]
7. COc1c(C)c2c(c(O)c1C/C=C(\C)CCC(=O)O)C(=O)OC2 [Mycophenolic (Mycophenolate)]
8. Cn1cnc([N+](=O)[O-])c1Sc1ncnc2[nH]cnc12

0.174
0.187
0.301
0.204
0.204
0.881
0.311
0.167

Go through the list and state growth inhibition by drug plus 177Lu-lilotomab satetraxetan for each entry.
1. NC(=O)c1ccc(-c2nc(-c3ccccn3)c(-c3ccc4c(c3)OCO4)[nH]2)cc1
2. CN(C)c1nc(N(C)C)nc(N(C)C)n1
3. CN(CCOc1ccc(CC2SC(=O)NC2=O)cc1)c1ccccn1 (stereo not given)
4. Nc1ncn([C@H]2C[C@H](O)[C@@H](CO)O2)c(=O)n1
5. Cn1nnc2c(C(N)=O)ncn2c1=O [Temozolomide]
6. C[C@]12CC[C@@H]3c4ccc(O)cc4CC[C@H]3[C@@H]1CC[C@@H]2O
7. CCOC(=O)C1=C[C@]2(CC)CCCN3CCc4c(n1c1ccccc41)[C@@H]32

1: 0.198; 2: -0.0604; 3: 0.0655; 4: 0.167; 5: 0.0893; 6: 0.26; 7: 0.159

Dear colleague, could you send me growth inhibition by drug plus 177Lu-lilotomab satetraxetan for each of the items below? Thanks.
1. Nc1nccc(Oc2ccc(NC(=O)c3c[nH]cc(-c4ccc(F)cc4)c3=O)cc2F)c1Cl
2. CCOc1ccn(-c2ccc(F)cc2)c(=O)c1C(=O)Nc1ccc(Oc2ccnc(N)c2Cl)c(F)c1

0.0973
0.258
